Cited source: PubChem BioAssay (NCATS)

- assay method text: qHTS of pediatric cancer cell lines to identify multiple opportunities for drug repurposing: Primary screen for U-2 OS cells (AID 1347096); note: nearly all actives have a fitted effect of over 50% in size; note: potency is the fitted concentration of half-maximal effect
- run parameters: U-2 OS viability, CellTiter-Glo luminescence, 48 h; series mostly up to 46 µM
Inconclusive results are not listed. The source made the active and inactive calls. Calls come from the whole dose curve; as a rule, active = well fitted cell-killing curve with a large enough effect; inconclusive = small, poorly fitted or top-dose-only effect; inactive = flat fitted curve, though single readings scatter. Starred links: 1 amine or outer side, 2 acyl side, 3 side chain; linkers in the order of their positions; H or OH if unused. Positions of bridges follow the written chain, without caps; N, C: chain ends. Non-standard residues stand in square brackets, D forms with d. Residues, ends and D or L forms follow the SMILES beside them. Chains are numbered I, II in the order given. Actinocin(9to1) = Cc1c2oc3c(C)ccc(C(=O)[*:1])c3nc-2c(C(=O)[*:2])c(N)c1=O; NMeV = CN[CH](C(=O)O)C(C)C; Sar = CNCC(=O)O

# compound, Potency
data = [
    ("C[C@@H](Oc1ccc2[nH]nc(C=Cc3cnn(CCO)c3)c2c1)c1c(Cl)cncc1Cl", "inactive"),
    ("O=C(CN1C(=O)C2(CCCC2)NC[C@H]1c1cc(F)cc(F)c1)Nc1ccc2c(c1)C[C@@]1(C2)C(=O)Nc2ncccc21", "inactive"),
    ("CC(C)n1cnc2c(NCCc3ccc(O)cc3)nc(-c3csc4ccccc34)nc21", "inactive"),
    ("Cc1c2oc3c(C)ccc(C(=O)NC4C(=O)NC(C(C)C)C(=O)N5CCCC5C(=O)N(C)CC(=O)N(C)C(C(C)C)C(=O)OC4C)c3nc-2c(C(=O)NC2C(=O)NC(C(C)C)C(=O)N3CCCC3C(=O)N(C)CC(=O)N(C)C(C(C)C)C(=O)OC2C)c(N)c1=O (stereo unspecified) (I: TVP[Sar][NMeV] / II: TVP[Sar][NMeV]; ester I:1-I:C, II:1-II:C; linker I:N-II:N via Actinocin(9to1); configuration not given here)", "1 nM (active)"),
    ("CC(C)(C)[N+]([O-])=Cc1ccc(S(=O)(=O)O)cc1S(=O)(=O)O", "inactive"),
    ("CC(=O)OCC(=O)[C@@]12N=C(C)O[C@H]1C[C@H]1[C@@H]3CCC4=CC(=O)C=C[C@]4(C)[C@@H]3[C@@H](O)C[C@@]12C", "inactive"),
]
